Cited source for all entries: the supplement of paper PMC10567573

B1: TMEM192 (parent)
chain: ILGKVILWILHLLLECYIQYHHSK

variants of: B1; experiment: protein stability index of a GFP-peptide fusion (GPS, HEK-293T) (PSI 1-6); higher = more stable; conditions: c terminus: a fixed tail appended;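 note: lentivirally expressed fusions sorted by FACS into six bins by GFP to DsRed ratio, PSI derived from sequencing read proportions per bin multiplied by bin number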
Parameter: protein stability index. Scope: all listed entries.
measuredAttribute: protein stability index

>>> datavalue("Y20R")
1.94
>>> datavalue("Q19W")
2.36
>>> datavalue("I6S")
3.76
>>> datavalue("I6A")
1.4
>>> datavalue("H22A")
2.94
>>> datavalue("C16A")
3.38
>>> datavalue("Q19T")
2.57
>>> datavalue("H21W")
2.55
>>> datavalue("H22L")
1.94
>>> datavalue("H11A")
2.76
>>> datavalue("Y20K")
2.51
>>> datavalue("V5W")
3.91
>>> datavalue("L14I")
3.72
>>> datavalue("H11P")
3.26
>>> datavalue("L7S")
3.17
>>> datavalue("W8M")
3.22
>>> datavalue("W8A")
2.92
>>> datavalue("C16D")
2.6
>>> datavalue("L12K")
2.69
>>> datavalue("I6K")
3.39
>>> datavalue("H21E")
3
>>> datavalue("I6P")
2.73
>>> datavalue("L13V")
2.8
>>> datavalue("L13D")
2.47
>>> datavalue("W8P")
2.6
>>> datavalue("G3F")
2.9
>>> datavalue("L10K")
1.75
>>> datavalue("V5T")
2.49
>>> datavalue("H22I")
2.33
>>> datavalue("L7F")
2.7
>>> datavalue("L2P")
2.74
>>> datavalue("H22S")
3.42
>>> datavalue("L7N")
2.51
>>> datavalue("K4D")
3.04
>>> datavalue("I18Y")
2.24
>>> datavalue("Q19V")
3.16
>>> datavalue("K24F")
3.92
>>> datavalue("H11C")
3.27
>>> datavalue("L2N")
2.93
>>> datavalue("I9N")
4.27
>>> datavalue("L12M")
2.29
>>> datavalue("H21G")
3.35
>>> datavalue("Q19C")
3.13
>>> datavalue("L13S")
2.98
>>> datavalue("I18K")
3.4
>>> datavalue("S23N")
4.27
>>> datavalue("L7I")
2.24
>>> datavalue("V5G")
3.88
>>> datavalue("K24V")
2.48
>>> datavalue("C16K")
3.66
>>> datavalue("E15A")
3.03
>>> datavalue("S23E")
2.49
>>> datavalue("Y20N")
2.5
>>> datavalue("V5S")
3.18
>>> datavalue("H21P")
2.65
>>> datavalue("L7Y")
2.85
>>> datavalue("Y17P")
3.26
>>> datavalue("V5A")
2.85
>>> datavalue("E15K")
2.68
>>> datavalue("C16F")
2.6
>>> datavalue("V5M")
3.23
>>> datavalue("I18A")
4.65
>>> datavalue("I18T")
2.31
>>> datavalue("H22K")
3.66
>>> datavalue("L10V")
2.85
>>> datavalue("V5F")
2.7
>>> datavalue("L13Y")
2.97
>>> datavalue("L10P")
3.36
>>> datavalue("L14C")
2.25
>>> datavalue("L14H")
3.19
>>> datavalue("L10A")
2.54
>>> datavalue("K24W")
3.65
>>> datavalue("I1H")
2.88
>>> datavalue("Y20Q")
4.39
>>> datavalue("E15L")
3.05
>>> datavalue("L10E")
5.03
>>> datavalue("H21K")
3.49
>>> datavalue("I6R")
2.74
>>> datavalue("K4R")
1.83
>>> datavalue("G3Y")
3.82
>>> datavalue("L14Q")
2.28
>>> datavalue("V5H")
2.2
>>> datavalue("I18C")
2.4
>>> datavalue("I18Q")
3.46
>>> datavalue("H11M")
4.49
>>> datavalue("L13A")
3.26
>>> datavalue("L10T")
2.19
>>> datavalue("L7W")
3.41
>>> datavalue("H11F")
3.18
>>> datavalue("L10C")
1.5
